Measurement Protocol: Clearance in Sprague-Dawley rat
Type: ADME, organism-based
Condition: in vivo
Record form. Attribute: log10 clearance. Fill in for each entry.
Scale: log10; quantity: clearance; unit before log: mL/min/kg

Consider the reported log10 clearance for these compounds:
Smiles Notation: O=C(Nc1cccnc1)N1CCN(Cc2cccc(Oc3ccc(Cl)cc3)c2)CC1
Result Number: 1.06
--
Smiles Notation: O=C(Nc1cccnc1)N1CCN(Cc2cccc(Oc3ccc(Br)cc3)c2)CC1
Result Number: 1.12
--
Smiles Notation: O=C(Nc1cccnc1)N1CCN(Cc2cccc(Oc3ccc(F)cc3)c2)CC1
Result Number: 1.00

Your task in this section: give log10 clearance for each listed record.
1. O=C(Nc1ccon1)N1CCN(Cc2cccc(Oc3ccc(Cl)cc3)c2)CC1
2. O=C(Nc1nnn[nH]1)N1CCN(Cc2cccc(Oc3ccc(Cl)cc3)c2)CC1
3. O=C(Nc1cc[nH]n1)N1CCN(Cc2cccc(Oc3ccc(Cl)cc3)c2)CC1
4. O=C(Nc1cnccc1Cl)N1CCN(Cc2cccc(Oc3ccc(Cl)cc3)c2)CC1
5. O=C(Nc1noc2ccccc12)N1CCN(Cc2cccc(Oc3ccc(Cl)cc3)c2)CC1
6. O=C(Nc1cnc2ccccn12)N1CCN(Cc2cccc(Oc3ccc(Cl)cc3)c2)CC1

Solution:
1: 1.00; 2: 0.52; 3: 0.92; 4: 1.67; 5: 0.97; 6: 1.80

Exercise: Which log10 clearance is listed for O=C(Nc1cnccn1)N1CCN(Cc2cccc(Oc3ccc(Cl)cc3)c2)CC1 ?
Solution: 1.19

----------
Record form. Attribute: Kp. Fill in for each entry.
Measurement Protocol: Ratio of drug level in brain to plasma in Sprague-Dawley rat at 20 mg/kg via oral gavage
Assay type: ADME, organism-based
Condition: read-out: BPR
Give bare numbers.

Consider the reported Kp for these compounds:
Smiles Notation: N#Cc1ccncc1NC(=O)N1CCN(Cc2cccc(Oc3ccc(Cl)cc3)c2)CC1
Kp: 3.28
//
Smiles Notation: O=C(Nc1cccnc1)N1CCN(Cc2cccc(Oc3ccc(Br)cc3)c2)CC1
Kp: 1.58
//
Smiles Notation: O=C(Nc1cccnc1)N1CCN(Cc2cc(Cl)cc(Oc3ccc(Cl)cc3)c2)CC1
Kp: 1.26
//
Smiles Notation: O=C(Nc1cccnc1)N1CCN(Cc2cccc(Oc3ccc(C(F)(F)F)cc3)c2)CC1
Kp: 1.99
//
Smiles Notation: O=C(Nc1cnccc1Cl)N1CCN(Cc2cccc(Oc3ccc(Cl)cc3)c2)CC1
Kp: 1.18

Next, consider the following compound.
Exercise: Which Kp is listed for O=C(Nc1cccnc1)N1CCC(Cc2cccc(Oc3ccc(Cl)cn3)c2)CC1 ?
Solution: 0.45
